target: GCN2 kinase (Homo sapiens, UniProt Q9P2K8); experiment: GCN2 enzyme inhibition assay (Transcreener ADP2 fluorescence polarization); assay type: biochemical; conditions: Enzyme activity for compounds of Formula IV; Ki(app), 280 μM ATP, 25° C.
Sequence (Q9P2K8 whole entry): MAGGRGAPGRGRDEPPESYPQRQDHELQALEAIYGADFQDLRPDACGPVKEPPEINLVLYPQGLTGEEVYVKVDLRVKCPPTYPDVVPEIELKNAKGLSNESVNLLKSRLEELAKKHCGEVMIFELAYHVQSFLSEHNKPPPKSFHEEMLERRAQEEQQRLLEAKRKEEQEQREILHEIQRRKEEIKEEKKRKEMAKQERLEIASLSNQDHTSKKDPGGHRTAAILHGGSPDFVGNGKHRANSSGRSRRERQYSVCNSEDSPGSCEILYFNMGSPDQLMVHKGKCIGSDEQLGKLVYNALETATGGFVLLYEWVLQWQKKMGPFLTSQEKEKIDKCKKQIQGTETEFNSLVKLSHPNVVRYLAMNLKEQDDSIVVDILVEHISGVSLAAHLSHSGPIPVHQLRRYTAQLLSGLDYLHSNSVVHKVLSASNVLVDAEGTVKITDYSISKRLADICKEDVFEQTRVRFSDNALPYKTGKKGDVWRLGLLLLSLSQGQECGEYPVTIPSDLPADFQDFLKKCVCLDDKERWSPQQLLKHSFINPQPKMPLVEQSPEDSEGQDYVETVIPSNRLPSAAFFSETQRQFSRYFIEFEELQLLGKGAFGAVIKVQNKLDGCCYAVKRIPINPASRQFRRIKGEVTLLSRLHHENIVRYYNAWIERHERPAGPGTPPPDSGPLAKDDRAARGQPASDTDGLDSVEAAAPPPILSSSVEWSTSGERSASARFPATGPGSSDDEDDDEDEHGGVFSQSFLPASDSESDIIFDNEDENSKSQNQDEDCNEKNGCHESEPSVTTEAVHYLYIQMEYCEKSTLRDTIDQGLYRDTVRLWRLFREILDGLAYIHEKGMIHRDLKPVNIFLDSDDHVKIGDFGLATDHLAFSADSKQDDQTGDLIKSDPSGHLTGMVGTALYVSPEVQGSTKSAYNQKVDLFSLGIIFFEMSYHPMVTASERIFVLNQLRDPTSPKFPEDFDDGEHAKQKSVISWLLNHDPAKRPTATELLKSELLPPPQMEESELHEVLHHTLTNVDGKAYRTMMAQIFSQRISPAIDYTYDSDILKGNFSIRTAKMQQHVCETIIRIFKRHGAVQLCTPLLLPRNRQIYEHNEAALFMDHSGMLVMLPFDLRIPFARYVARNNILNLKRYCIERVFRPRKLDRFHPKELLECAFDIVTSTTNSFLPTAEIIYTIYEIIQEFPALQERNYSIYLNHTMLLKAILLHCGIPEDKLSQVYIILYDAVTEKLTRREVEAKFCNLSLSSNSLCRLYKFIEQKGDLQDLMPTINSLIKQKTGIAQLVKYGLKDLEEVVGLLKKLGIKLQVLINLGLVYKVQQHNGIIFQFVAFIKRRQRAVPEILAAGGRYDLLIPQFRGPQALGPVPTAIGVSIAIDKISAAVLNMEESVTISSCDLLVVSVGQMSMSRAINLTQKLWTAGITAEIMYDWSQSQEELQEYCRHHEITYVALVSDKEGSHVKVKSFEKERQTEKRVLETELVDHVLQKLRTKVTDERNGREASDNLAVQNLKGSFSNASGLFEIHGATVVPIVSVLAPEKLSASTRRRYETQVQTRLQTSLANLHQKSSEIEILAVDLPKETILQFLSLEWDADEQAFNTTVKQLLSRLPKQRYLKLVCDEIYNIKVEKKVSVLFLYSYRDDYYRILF
ENDPOINT NAME: Ki

Record request: Ki value, item CC1CN(c2nccc(-c3cnc4cnc(Br)cn34)n2)C(C)C(c2cn[nH]c2)N1 (stereo not drawn) [IV-383]
10 to 100 nM

Okay, and Cc1n[nH]c(C)c1C1CN(c2ccnc(-c3cnc4cnc(C(F)(F)F)cn34)n2)CC(C)N1 (single isomer, unassigned) [IV-465] ?
10 to 100 nM

Okay, and OCC1CCCN(c2ccnc(-c3cnc4cnc(C(F)F)cn34)n2)C1 (stereo not drawn) [IV-121] ?
100 to 1000 nM

* * *

target: GCN2 kinase (Homo sapiens, UniProt Q9P2K8); assay: GCN2 enzyme inhibition assay (Transcreener ADP2 fluorescence polarization); type: biochemical; details: compounds of Formula II; 280 μM ATP, 4 nM GCN2 kinase
ENDPOINT NAME: Ki

Record request: Ki value, item CS(=O)(=O)NC[C@@H]1CN(c2cc(-c3cnc4ccc(C(F)F)nn34)ccn2)CCO1
< 10 nM

Okay, and CN(C)S(=O)(=O)NCC1CCCN(c2cc(-c3cnc4ccc(C(F)F)nn34)ncn2)C1 (stereo not drawn) ?
10 to 1000 nM

Okay, and CS(=O)(=O)NCC1CN(c2cc(-c3cnc4ccc(C(F)F)nn34)ncn2)CC(C2CC2)O1 (stereo not drawn) [II-443] ?
< 10 nM

Okay, and CC1C(CNS(C)(=O)=O)C(F)(F)C(C)CN1c1cc(-c2cnc3ccc(C(F)F)nn23)ncn1 (stereo not drawn) [II-461] ?
< 10 nM

Okay, and C[C@@H]1C[C@H](CO)[C@H](C)N(c2cc(-c3cnc4ccc(C(F)F)nn34)ncn2)C1 (single isomer, unassigned) ?
< 10 nM

Okay, and CC1NCCN(c2cc(-c3cnc4ccc(C(F)(F)F)nn34)ncn2)C1c1cn[nH]c1 (stereo not drawn) ?
10 to 1000 nM

Okay, and CS(=O)(=O)N[C@@H]1CCCN(c2cc(-c3cnc4ccc(C(F)F)nn34)ncn2)C1 (single isomer, unassigned) ?
10 to 1000 nM

Okay, and CS(=O)(=O)NCC12CC1CN(c1cc(-c3cnc4ccc(C(F)F)nn34)ncn1)C2 (stereo not drawn) ?
10 to 1000 nM

Okay, and CCN1CCN(c2cc(-c3cnc4ccc(C(F)F)nn34)ncn2)C(C)C1CNS(C)(=O)=O (stereo not drawn) [II-482] ?
< 10 nM

Okay, and CC(NS(C)(=O)=O)C1CN(c2cc(-c3cnc4ccc(C(F)F)nn34)ncn2)CCO1 (stereo not drawn) [II-177] ?
< 10 nM

Okay, and CC1CC(N=S(C)(=O)C2CC2)CN(c2cc(-c3cnc4ccc(C(F)F)nn34)ncn2)C1 (stereo not drawn) [II-634] ?
10 to 1000 nM

Okay, and FC(F)c1ccc2ncc(-c3cc(N4Cc5ccncc5C4)ncn3)n2n1 ?
10 to 1000 nM

* * *

target: intracellular GCN2 (phosphorylation of the GCN2 substrate eIF2α) (Homo sapiens); experiment: GCN2 cellular inhibition assay (AlphaScreen SureFire P-eIF2α Ser51, borrelidin-treated U2OS cells); format: cell-based; conditions: compounds of Formula II; biomarker assay, phosphorylated eIF2α Ser51 in borrelidin-treated U2OS cells
pIC50: −log10 of the molar value.
ENDPOINT NAME: pIC50

Record request: pIC50 value, item CC1CC(N=S(C)(C)=O)CN(c2cc(-c3cnc4ccc(C(F)F)nn34)ncn2)C1 (single isomer, unassigned)
5.30 to 6.30

Okay, and CN1CCN(c2cc(-c3cnc4ccc(C(F)F)nn34)ccn2)CC1CO (centres unmarked) ?
< 5.30

Okay, and CC(=O)N1CCN(c2cc(-c3cnc4ccc(C(F)F)nn34)ncn2)C(C)C1 (centres unmarked) ?
< 5.30

Okay, and CC1NCCN(c2cc(-c3cnc4ccc(C(F)(F)F)nn34)ncn2)C1c1cn[nH]c1 (centres unmarked) ?
< 5.30

Okay, and O=C1OCC2CN(c3cc(-c4cnc5ccc(C(F)F)nn45)ccn3)CCN12 (centres unmarked) ?
5.30 to 6.30

Okay, and CS(=O)(=O)NCC1COCCN(c2cc(-c3cnc4ccc(C(F)(F)F)nn34)ccn2)C1 (centres unmarked) ?
5.30 to 6.30

Okay, and OC[C@H]1CN(c2cc(-c3cnc4ccc(C(F)F)nn34)ncn2)C[C@@H](C(F)(F)F)O1 ?
5.30 to 6.30

Okay, and CC1CN(c2cc(-c3cnc4ccc(C(F)(F)F)nn34)ncn2)CC(CNS(C)(=O)=O)C1(F)F (centres unmarked) [II-293] ?
5.30 to 6.30

* * *

biological target: intracellular GCN2 (phosphorylation of the GCN2 substrate eIF2α) (Homo sapiens); assay: GCN2 cellular inhibition assay (AlphaScreen SureFire P-eIF2α Ser51, borrelidin-treated U2OS cells); format: cell-based; conditions: compounds of Formula II; biomarker assay, phosphorylated eIF2α Ser51 in borrelidin-treated U2OS cells
pIC50: −log10 of the molar value.
Please go through the items and note down their pIC50.

Record request: pIC50 value, item CC1CN(c2cc(-c3cnc4ccc(C(F)F)nn34)ncn2)CC(CNS(C)(=O)=O)N1C (stereo not drawn)
5.30 to 6.30

Okay, and CS(=O)(=O)N1CCCC(c2cc(-c3cnc4ccc(C(F)F)nn34)ncn2)CC1 (single isomer, unassigned) [II-276] ?
5.30 to 6.30

Okay, and COC1CC(CNS(C)(=O)=O)CN(c2cc(-c3cnc4ccc(C(F)F)nn34)ncn2)C1 (single isomer, unassigned) [II-233] ?
> 6.30

Okay, and C[C@@H]1C[C@H](N=S(C)(C)=O)[C@H](C)N(c2cc(-c3cnc4ccc(C(F)F)nn34)ncn2)C1 (single isomer, unassigned) ?
> 6.30

Okay, and CN1CCN(c2cc(-c3cnc4ccc(C(F)F)nn34)ncn2)C[C@H]1C1(O)CC1 ?
< 5.30

Okay, and CS(=O)(=O)NCC1CCCN(c2cc(-c3cnc4ccc(C(F)F)nn34)cc(N3CC(O)C3)n2)C1 (stereo not drawn) ?
5.30 to 6.30

* * *

target: intracellular GCN2 (phosphorylation of the GCN2 substrate eIF2α) (Homo sapiens, UniProt Q9P2K8); experiment: GCN2 cellular inhibition assay (AlphaScreen SureFire P-eIF2α Ser51, borrelidin-treated U2OS cells); type: cell-based; details: compounds of Formula II; biomarker assay, phosphorylated eIF2α Ser51 in borrelidin-treated U2OS cells
pIC50: −log10 of the molar value.
Please go through the items and note down their pIC50.

Record request: pIC50 value, item CNS(=O)(=O)NCC1CCCN(c2cc(-c3cnc4ccc(C(F)F)nn34)ncn2)C1 (stereo not shown)
> 6.30

Okay, and CC1C(CNS(C)(=O)=O)N(C)CCN1c1cc(-c2cnc3ccc(C(F)F)nn23)ncn1 (single isomer, unassigned) [II-364] ?
> 6.30

Okay, and OC[C@H]1C[C@@H](C(F)(F)F)CN(c2cc(-c3cnc4ccc(C(F)F)nn34)ncn2)C1 ?
< 5.30

Okay, and CS(=O)(=O)NCC1CCCN(c2cc(-c3cnc4ccc(C(F)F)nn34)cc(CN)n2)C1 (stereo not shown) ?
5.30 to 6.30

* * *

Please go through the items and note down their pIC50.
target: intracellular GCN2 (phosphorylation of the GCN2 substrate eIF2α) (Homo sapiens, UniProt Q9P2K8); assay: GCN2 cellular inhibition assay (AlphaScreen SureFire P-eIF2α Ser51, borrelidin-treated U2OS cells); format: cell-based; details: compounds of Formula IV; biomarker assay, phosphorylated eIF2α Ser51 in borrelidin-treated U2OS cells
pIC50: −log10 of the molar value.

Record request: pIC50 value, item C[C@H]1[C@@H](c2cn[nH]c2)NCCN1c1ccnc(-c2cnc3cnc(C4CC4)cn23)n1 (racemic)
5.30 to 6.30

Okay, and CCN1CCN(c2ccnc(-c3cnc4cnc(Br)cn34)n2)[C@@H](c2cn[nH]c2)[C@H]1C (relative stereo) ?
5.30 to 6.30

Okay, and Cc1cc(C2CCCN(c3ccnc(-c4cnc5cnc(C(F)F)cn45)n3)C2)n[nH]1 (stereo not shown) ?
< 5.30

Okay, and CP(C)(=O)C1CC(c2cn[nH]c2)CN(c2ccnc(-c3cnc4cnc(C(F)(F)F)cn34)n2)C1 (single isomer, unassigned) [IV-632] ?
< 5.30

* * *

target: intracellular GCN2 (phosphorylation of the GCN2 substrate eIF2α) (Homo sapiens, UniProt Q9P2K8); experiment: GCN2 cellular inhibition assay (AlphaScreen SureFire P-eIF2α Ser51, borrelidin-treated U2OS cells); assay type: cell-based; settings: compounds of Formula II; biomarker assay, phosphorylated eIF2α Ser51 in borrelidin-treated U2OS cells
Please go through the items and note down their IC50.

Record request: IC50 value, item O=S(=O)(CC1CC1)N[C@H]1CCCN(c2cc(-c3cnc4ccc(C(F)F)nn34)ncn2)C1
0.5 to 5 µM

Okay, and FC(F)c1ccc2ncc(-c3ccnc(N4CCN5CCNCC5C4)c3)n2n1 (stereo not drawn) ?
> 5 µM

Okay, and CC1C(CO)OCCN1c1cc(-c2cnc3ccc(C(F)F)nn23)ncn1 (single isomer, unassigned) [II-414] ?
> 5 µM

Okay, and C[C@H]1CN(c2cc(-c3cnc4ccc(C(C)(F)F)nn34)ncn2)C[C@@H](CNS(C)(=O)=O)C1(F)F ?
> 5 µM

Okay, and CS(=O)(=O)NC[C@@H]1CN(c2ccnc(-c3cnc4ccc(C(F)F)nn34)c2)CCO1 ?
< 0.5 µM

Okay, and CC1CC(C(N)=O)C(C)N(c2cc(-c3cnc4ccc(C(F)(F)F)nn34)ncn2)C1 (racemic) [II-720] ?
0.5 to 5 µM
